Readings of MIC for the listed compounds
Tested on: S. aureus M126
procedure.text: MIC, agar plate dilution method
Assay type: cell-based
settings: Staphylococcus aureus, 37° C., 20 hours, SDA with 5% horse blood, read-out: Antimicrobial activity (MIC)

A selection of reference data follows.
CCC(=O)O[C@H]1[C@H](C)O[C@@H](O[C@H]2[C@H](N(C)C)[C@@H](O)[C@H](O[C@H]3[C@@H](CC=O)C[C@@H](C)[C@@H](O)/C=C/C=C/C[C@@H](C)OC(=O)C[C@@H](O)[C@@H]3OC)O[C@@H]2C)C[C@@]1(C)OC :: > 100 µg/mL
CCCCC(=O)O[C@H]1[C@H](C)O[C@@H](O[C@H]2[C@H](N(C)C)[C@@H](O)[C@H](O[C@H]3[C@@H](CC=O)C[C@@H](C)[C@@H](O)/C=C/C=C/C[C@@H](C)OC(=O)C[C@@H](O)[C@@H]3OC)O[C@@H]2C)C[C@@]1(C)OC :: > 100 µg/mL

As a next step, examine the compound that follows.
Prompt line: Give MIC for CC[C@H]1OC(=O)[C@H](C)[C@@H](O[C@H]2C[C@@](C)(OC)[C@@H](O)[C@H](C)O2)[C@H](C)[C@@H](O[C@@H]2O[C@H](C)C[C@H](N(C)C)[C@H]2O)[C@](C)(OC)C[C@@H](C)C(=O)[C@H](C)[C@@H](O)[C@]1(C)O [CAM, clarithromycin, reference compound]
Response line: > 100 µg/mL

* * *

System: S. aureus MS15027
procedure.text: MIC, agar plate dilution method
Format: cell-based
settings: Staphylococcus aureus, MS15027, 20 h, read-out: Antimicrobial activity (MIC), 37° C., 20 hours, SDA with 5% horse blood
Readings of MIC for the listed compounds
Numeric answer only, unit µg/mL assumed.

Prompt line: Jot down MIC (S. aureus MS15027) of CO[C@@H]1[C@@H](O[C@@H]2O[C@H](C)[C@@H](O[C@H]3C[C@@](C)(OC)[C@@H](OC(=O)C(C)C)[C@H](C)O3)[C@H](N(C)C)[C@H]2O)[C@@H](CC=O)C[C@@H](C)[C@@H](O)/C=C/C=C/C[C@@H](C)OC(=O)C[C@H]1O .
Response line: 0.2

* * *

Readings of MIC for the listed compounds
System: S. pneumoniae IP692
procedure.text: MIC, agar plate dilution method
Assay type: cell-based
settings: Streptococcus pneumoniae, IP692, 20 h, 37° C., 20 hours, SDA with 5% horse blood; read-out: Antimicrobial activity (MIC)

A selection of reference data follows.
CCC(=O)O[C@H]1[C@H](C)O[C@@H](O[C@H]2[C@H](N(C)C)[C@@H](O)[C@H](O[C@H]3[C@@H](CC=O)C[C@@H](C)[C@@H](O)/C=C/C=C/C[C@@H](C)OC(=O)C[C@@H](O)[C@@H]3OC)O[C@@H]2C)C[C@@]1(C)OC [(2), 3"-O-methylleucomycin A7] :: < 0.025 µg/mL
CO[C@@H]1[C@@H](O[C@@H]2O[C@H](C)[C@@H](O[C@H]3C[C@@](C)(OC)[C@@H](OC(=O)CC(C)C)[C@H](C)O3)[C@H](N(C)C)[C@H]2O)[C@@H](CC=O)C[C@@H](C)[C@@H](O)/C=C/C=C/C[C@@H](C)OC(=O)C[C@H]1O [(58), 3"-O-methylleucomycin A1] :: 0.05 µg/mL
CCC(=O)O[C@@H]1CC(=O)O[C@H](C)C/C=C/C=C/[C@H](O)[C@H](C)C[C@H](CC=O)[C@H](O[C@@H]2O[C@H](C)[C@@H](O[C@H]3C[C@@](C)(OC)[C@@H](O)[C@H](C)O3)[C@H](N(C)C)[C@H]2O)[C@H]1OC [(3), 3"-O-methylmidecamycin M1] :: 0.1 µg/mL
CCCC(=O)O[C@H]1[C@H](C)O[C@@H](O[C@H]2[C@H](N(C)C)[C@@H](O)[C@H](O[C@H]3[C@@H](CC=O)C[C@@H](C)[C@@H](O)/C=C/C=C/C[C@@H](C)OC(=O)C[C@@H](O)[C@@H]3OC)O[C@@H]2C)C[C@@]1(C)OC [(33), 3"-O-methylleucomycin A5] :: < 0.025 µg/mL
CC[C@H]1OC(=O)[C@H](C)[C@@H](O[C@H]2C[C@@](C)(OC)[C@@H](O)[C@H](C)O2)[C@H](C)[C@@H](O[C@@H]2O[C@H](C)C[C@H](N(C)C)[C@H]2O)[C@](C)(OC)C[C@@H](C)C(=O)[C@H](C)[C@@H](O)[C@]1(C)O [CAM, clarithromycin, reference compound] :: < 0.025 µg/mL
CCC(=O)O[C@@H]1CC(=O)O[C@H](C)C/C=C/C=C/[C@H](O)[C@H](C)C[C@H](CC=O)[C@H](O[C@@H]2O[C@H](C)[C@@H](O[C@H]3C[C@@](C)(O)[C@@H](OC(=O)CC)[C@H](C)O3)[C@H](N(C)C)[C@H]2O)[C@H]1OC [MDM, midecamycin A1, reference compound] :: 0.39 µg/mL
CO[C@@H]1[C@@H](O[C@@H]2O[C@H](C)[C@@H](O[C@H]3C[C@@](C)(OC)[C@@H](OC(=O)C(C)C)[C@H](C)O3)[C@H](N(C)C)[C@H]2O)[C@@H](CC=O)C[C@@H](C)[C@@H](O)/C=C/C=C/C[C@@H](C)OC(=O)C[C@H]1O [(53), 4"-O-isobutyryl-3"-Omethylleucomycin V] :: < 0.025 µg/mL

Prompt line: Give MIC for CCCCC(=O)O[C@H]1[C@H](C)O[C@@H](O[C@H]2[C@H](N(C)C)[C@@H](O)[C@H](O[C@H]3[C@@H](CC=O)C[C@@H](C)[C@@H](O)/C=C/C=C/C[C@@H](C)OC(=O)C[C@@H](O)[C@@H]3OC)O[C@@H]2C)C[C@@]1(C)OC [(48), 3"-O-methyl-4"-O-n-valerylleucomycin V]
Response line: < 0.025 µg/mL
